tgt: K-RAS G12D protein (Homo sapiens, UniProt P01116, G12D)
assay: ELISA binding affinity (Kd) for 2nd target
experimental parameters: read-out: Biding affinity for 2nd target Kd, ligands with biotin conjugated to the 5′-end
[NapdU] = 5-(N-(1-naphthylmethyl)carboxamide)-2'-deoxyuridine (Nap-dU)
# key: entry, value: Kd
Respond numerically; units are nM and should not be typed.

Take a look at these entries with their results.
AD008: truncated nucleic acid ligand GCA6AAG6CCGGA6GGCAGC666A6GC, 6 = Nap-dU (DNA GCAUAAGUCCGGAUGGCAGCUUUAUGC; aptamer; DNA, [NapdU] at 4, 8, 14, 21, 22, 23, 25, backbone and methylation of C not given here)    287
AD007: truncated nucleic acid ligand GCA6AAG6CCGGA6GGCAGC666A6GCCGACC, 6 = Nap-dU (DNA GCAUAAGUCCGGAUGGCAGCUUUAUGCCGACC; aptamer; DNA, [NapdU] at 4, 8, 14, 21, 22, 23, 25, backbone and methylation of C not given here)    152
AD006: truncated nucleic acid ligand GAC6AGCA6AAG6CCGGA6GGCAGC666A6GCCG, 6 = Nap-dU (DNA GACUAGCAUAAGUCCGGAUGGCAGCUUUAUGCCG; aptamer; DNA, [NapdU] at 4, 9, 13, 19, 26, 27, 28, 30, backbone and methylation of C not given here)    77.6

stdin: Would you kindly share the measured Kd for AD004: truncated nucleic acid ligand GCCTGGAC6AGCA6AAG6CCGGA6GGCAGC666A6GCCGACCA6CAGCC, 6 = Nap-dU (DNA GCCTGGACUAGCAUAAGUCCGGAUGGCAGCUUUAUGCCGACCAUCAGCC; aptamer; DNA, [NapdU] at 9, 14, 18, 24, 31, 32, 33, 35, 44, backbone and methylation of C not given here) ?
stdout: 16.6

* * *

tgt: human serum albumin (HSA) (Homo sapiens, UniProt P02768)
Sequence (P02768 25-609): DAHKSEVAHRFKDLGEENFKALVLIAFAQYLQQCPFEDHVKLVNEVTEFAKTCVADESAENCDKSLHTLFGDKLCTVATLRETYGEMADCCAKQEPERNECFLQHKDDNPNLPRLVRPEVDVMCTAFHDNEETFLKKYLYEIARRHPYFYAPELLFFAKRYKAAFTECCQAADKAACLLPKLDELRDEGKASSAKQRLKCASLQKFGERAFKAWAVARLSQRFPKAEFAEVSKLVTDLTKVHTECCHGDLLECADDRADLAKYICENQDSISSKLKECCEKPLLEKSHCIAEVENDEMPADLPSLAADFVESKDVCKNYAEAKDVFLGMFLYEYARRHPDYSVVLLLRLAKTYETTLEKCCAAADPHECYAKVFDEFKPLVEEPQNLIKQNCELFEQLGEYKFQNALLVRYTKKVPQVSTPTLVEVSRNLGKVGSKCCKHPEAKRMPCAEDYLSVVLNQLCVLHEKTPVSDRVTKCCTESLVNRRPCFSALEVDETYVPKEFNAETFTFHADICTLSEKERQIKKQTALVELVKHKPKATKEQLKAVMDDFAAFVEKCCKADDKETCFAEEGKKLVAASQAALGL
assay: ELISA binding affinity (Kd) for 1st target
[NapdU] = 5-(N-(1-naphthylmethyl)carboxamide)-2'-deoxyuridine (Nap-dU)
readout: pKd
The quantity pKd is defined as the negative base-10 logarithm of the molar concentration.

The examples below pair each entry with its known result.
AD004: truncated nucleic acid ligand GCCTGGAC6AGCA6AAG6CCGGA6GGCAGC666A6GCCGACCA6CAGCC, 6 = Nap-dU (DNA GCCTGGACUAGCAUAAGUCCGGAUGGCAGCUUUAUGCCGACCAUCAGCC; aptamer; DNA, [NapdU] at 9, 14, 18, 24, 31, 32, 33, 35, 44, backbone and methylation of C not given here)    6.72
AD006: truncated nucleic acid ligand GAC6AGCA6AAG6CCGGA6GGCAGC666A6GCCG, 6 = Nap-dU (DNA GACUAGCAUAAGUCCGGAUGGCAGCUUUAUGCCG; aptamer; DNA, [NapdU] at 4, 9, 13, 19, 26, 27, 28, 30, backbone and methylation of C not given here)    6.03
AD007: truncated nucleic acid ligand GCA6AAG6CCGGA6GGCAGC666A6GCCGACC, 6 = Nap-dU (DNA GCAUAAGUCCGGAUGGCAGCUUUAUGCCGACC; aptamer; DNA, [NapdU] at 4, 8, 14, 21, 22, 23, 25, backbone and methylation of C not given here)    6.27

# next substance below
stdin: Fill in: pKd of AD008: truncated nucleic acid ligand GCA6AAG6CCGGA6GGCAGC666A6GC, 6 = Nap-dU (DNA GCAUAAGUCCGGAUGGCAGCUUUAUGC; aptamer; DNA, [NapdU] at 4, 8, 14, 21, 22, 23, 25, backbone and methylation of C not given here) is ___
stdout: 7.17

The reported measurements were obtained from patent US20240336926A1.
